The entries below come with measured ΔH values attached.
Molecular target: T1, EphA2 ligand binding domain (EphA2 LBD), residues 28-200 (UniProt P29317 28-200)
T1 construct: range 28-200; Expressed in E. coli; also called soluble EphA2 LBD; soluble monomeric EphA2 LBD
T1 sequence (P29317 other isoform, or with tags, fused parts or gaps limits assumed, form in doubt): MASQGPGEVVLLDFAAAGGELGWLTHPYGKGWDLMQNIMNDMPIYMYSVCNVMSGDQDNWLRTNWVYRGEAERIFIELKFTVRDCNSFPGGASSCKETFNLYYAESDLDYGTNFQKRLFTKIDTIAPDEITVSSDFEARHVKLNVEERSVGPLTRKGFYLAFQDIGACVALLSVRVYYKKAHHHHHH
Test: ITC, soluble EphA2 LBD and peptide
Where no end group is shown, it is not given here. [ ]: non-standard residue; d: D form. The star is where a group is joined. Biotin = O=C1N[C@H]2[C@H](CS[C@H]2CCCCC(=O)*)N1; βAla = NCCC(=O)O; Cam = NC(=O)C*
Report as a plain number; the unit kcal/mol is understood.

Look over these answered cases.
binder	ΔH, kcal/mol
CGAWLAYPDSVPYR (also: homodimer: N-terminal Cys of two chains joined by disulfide, N-terminally disulfide-linked homodimer made from monomer (15*); also called dimer (4)) [CGA-WLA-YR dimer (N-ter)]	-33.1
C(Cam)GAWLAYPDSVPYRPK(Biotin) (also called monomer (10); monomeric peptide (10)) [CcamGA-WLA-YRPK-bio]	-35.1
[βAla]WLAYPDSVPYGSGC (also: homodimer, disulfide at 15, other end not in the chain, C-terminally disulfide-linked homodimer made from monomer (9*); also called dimer (1); dimeric peptide (1)) [βA-WLA-YGSGC dimer (C-ter)]	-23.9
[βAla]WLAYPDSVPYRPKC (also: homodimer, disulfide at 15, other end not in the chain, C-terminally disulfide-linked homodimer made from monomer (19*); also called dimer (2); dimeric peptide (2)) [βA-WLA-YRPKC dimer (C-ter)]	-28.2

--- query ---
Q: Field request: ΔH | item: CGAWLAYPDSVPYRPK (also: N-terminally disulfide-linked homodimer, disulfide at 1, other end not in the chain, also called dimer (5); dimeric peptide (5)) [CGA-WLA-YRPK dimer (N-ter)]
Ans: -32.3
